# Measured On: fibrinogen receptor (GpIIb/IIIa) on blood platelet (Homo sapiens, UniProt P05106+P08514)
# Construct: fibrinogen-free blood platelet suspension; endogenous in cells
# Sequence (P08514 32-887 limits assumed): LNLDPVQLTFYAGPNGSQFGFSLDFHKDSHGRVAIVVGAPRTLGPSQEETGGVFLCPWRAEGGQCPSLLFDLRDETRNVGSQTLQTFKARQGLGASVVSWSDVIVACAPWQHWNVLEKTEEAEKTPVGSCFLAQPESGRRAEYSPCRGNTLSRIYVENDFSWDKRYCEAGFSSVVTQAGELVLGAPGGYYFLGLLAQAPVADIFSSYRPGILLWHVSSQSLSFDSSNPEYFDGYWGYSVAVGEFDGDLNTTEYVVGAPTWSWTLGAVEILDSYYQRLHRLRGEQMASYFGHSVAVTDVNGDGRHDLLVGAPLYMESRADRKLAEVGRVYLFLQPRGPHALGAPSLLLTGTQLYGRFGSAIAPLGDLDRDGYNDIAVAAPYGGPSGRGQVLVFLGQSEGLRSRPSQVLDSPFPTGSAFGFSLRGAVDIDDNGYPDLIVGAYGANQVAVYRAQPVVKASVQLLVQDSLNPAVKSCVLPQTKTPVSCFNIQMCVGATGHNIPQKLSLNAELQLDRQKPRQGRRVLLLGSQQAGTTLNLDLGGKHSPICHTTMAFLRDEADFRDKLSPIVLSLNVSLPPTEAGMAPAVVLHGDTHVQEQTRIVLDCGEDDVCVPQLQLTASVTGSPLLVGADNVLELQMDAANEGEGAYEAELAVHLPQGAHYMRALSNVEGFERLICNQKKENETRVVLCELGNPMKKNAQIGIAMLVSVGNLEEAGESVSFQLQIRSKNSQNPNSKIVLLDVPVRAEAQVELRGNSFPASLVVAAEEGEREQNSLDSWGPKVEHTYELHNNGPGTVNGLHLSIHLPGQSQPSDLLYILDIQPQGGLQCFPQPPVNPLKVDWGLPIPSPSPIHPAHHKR
# Sequence (P08514 891-1039 partner limits assumed): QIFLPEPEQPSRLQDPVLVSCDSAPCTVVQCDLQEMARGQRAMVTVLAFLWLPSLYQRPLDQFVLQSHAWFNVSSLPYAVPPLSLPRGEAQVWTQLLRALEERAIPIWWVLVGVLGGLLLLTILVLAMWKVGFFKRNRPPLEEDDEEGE
# Sequence (P05106 27-788): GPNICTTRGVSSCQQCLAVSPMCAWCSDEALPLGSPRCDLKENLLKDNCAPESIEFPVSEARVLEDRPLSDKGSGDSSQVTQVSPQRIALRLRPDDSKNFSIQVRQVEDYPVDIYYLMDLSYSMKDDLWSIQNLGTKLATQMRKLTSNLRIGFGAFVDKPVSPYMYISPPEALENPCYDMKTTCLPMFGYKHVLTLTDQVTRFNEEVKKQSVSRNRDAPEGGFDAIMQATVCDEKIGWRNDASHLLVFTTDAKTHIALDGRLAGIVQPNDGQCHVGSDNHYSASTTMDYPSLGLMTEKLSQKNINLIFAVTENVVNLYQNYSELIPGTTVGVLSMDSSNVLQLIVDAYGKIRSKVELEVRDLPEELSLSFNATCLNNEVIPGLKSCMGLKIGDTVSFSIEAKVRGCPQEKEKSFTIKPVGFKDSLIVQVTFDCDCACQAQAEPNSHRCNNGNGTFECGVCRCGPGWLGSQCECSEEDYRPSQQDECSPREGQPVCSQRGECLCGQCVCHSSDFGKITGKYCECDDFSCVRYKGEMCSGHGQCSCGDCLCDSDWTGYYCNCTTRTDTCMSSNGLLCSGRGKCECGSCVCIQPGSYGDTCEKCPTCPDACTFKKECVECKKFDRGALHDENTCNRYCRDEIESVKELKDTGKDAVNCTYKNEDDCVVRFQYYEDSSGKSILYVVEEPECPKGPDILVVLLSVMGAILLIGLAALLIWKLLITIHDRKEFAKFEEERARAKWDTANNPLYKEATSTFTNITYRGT
# Experimental Details: Human Blood Platelet Fibrinogen Binding Test (125I labeled human fibrinogen, ADP 10 μM)
# Condition Description: human platelet 125I-fibrinogen binding
# Protocol: Experiment 1 [Human Blood Platelet Fibrinogen Binding Test] The test was carried out referring to the methods of G. A. Marguerie (J. Biol. Chem., vol. 254, pages. 5357-5363, 1979) and N. S. Nicholson (Thromb. Res., vol. 50, pages 567-578, 1991). […]
Readout Label: IC50 (nM)

# Compound, Unit Of Measurement, Measured Value
measured = [
    ("Cc1c(C(=O)NCCC(=O)O)sc(=NC(=O)c2ccc(C(=N)NCCCC(=O)O)cc2)n1C [Compound 8]", "nM", 25.6),
    ("Cc1c(C(=O)NCCC(=O)O)sc(=NC(=O)c2ccc(C(=N)NCCCC(=O)OC3CCCCC3)cc2)n1C(C)C [Compound 17]", "nM", 12.6),
    ("Cc1c(C(=O)NCCC(=O)O)sc(=NC(=O)c2ccc(C(=N)NCCCCCC(=O)Nc3ccccc3)cc2)n1C1CC1 [Compound 51]", "nM", 8.6),
    ("Cc1c(C(=O)NCCC(=O)O)sc(=NC(=O)c2ccc(C(=N)NCCC(=O)O)cc2)n1C [Compound 9]", "nM", 16.5),
    ("Cc1c(C(=O)NCCC(=O)O)sc(=NC(=O)c2ccc(C(=N)NCCCC(=O)OC3CCCCC3)cc2)n1C1CCC1 [Compound 56]", "nM", 11.1),
]

a. Cc1c(C(=O)NCCC(=O)O)sc(=NC(=O)c2ccc(C(=N)NCCCC(=O)NC3CCCCC3)cc2)n1C [Compound 12]
b. Cc1c(C(=O)NCCC(=O)O)sc(=NC(=O)c2ccc(C(=N)NCCCC(=O)OC3CCCCC3)cc2)n1C1CC1 [Compound 49]
IN: Min IC50? a | b # respond with the chosen item's label
OUT: a
(a: 4.7 nM, b: 7.2 nM)

* * *

Measured remaining at 8 h, listed per entry.
# Experimental Details: Stability Test (pH 7 phosphate buffer, 80° C.)
# Type: physicochemical
# Condition Description: After 8 hours, 20 mg in 1000 ml, read-out: Remaining rate of Test drug
Structures can show the parent of a compound that is named as a salt.
Give your result in % as a bare value.

# Molecule, remaining at 8 h (%)
records = [
    ("Cc1c(C(=O)NCCC(=O)O)sc(=NC(=O)c2ccc(C(=N)NCCCC(=O)O)cc2)n1C", 95.7),
]

Now examine the next entry.
IN: Requested read-out: remaining at 8 h. Entry: Cc1c(C(=O)NCCC(=O)O)sc(=NC(=O)c2ccc(C(=N)N)cc2)n1C [Comparative drug, hydrobromide, reference compound]
OUT: 68.4

* * *

Measured remaining at 24 h, listed per entry.
# Experimental Details: Stability Test (pH 7 phosphate buffer, 80° C.)
# Assay type: physicochemical
# Condition Description: After 24 hours, 20 mg in 1000 ml, read-out: Remaining rate of Test drug
# Experimental: Experiment 4 [Stability Test] Stability test was carried out referring to the method of A. K. Amirjahed et al [J. Pharm. Sci., vol. 66, page 785 (1977)]. […]
Where a name gives a salt, the structure may show the parent alone.
Give your result in % as a bare value.

# Molecule, remaining at 24 h [%]
measured = [
    ("Cc1c(C(=O)NCCC(=O)O)sc(=NC(=O)c2ccc(C(=N)NCCCC(=O)O)cc2)n1C", 88.9),
]

IN: Requested read-out: remaining at 24 h. Entry: Cc1c(C(=O)NCCC(=O)O)sc(=NC(=O)c2ccc(C(=N)N)cc2)n1C [Comparative drug, hydrobromide, reference compound]
OUT: 32.3

Hello, the source for this data is patent US5672712A, in case you need it.
